This collection of values is drawn from paper PMC4778717.

system name: BsSecA (Bacillus subtilis, UniProt P28366)
Sequence (P28366 whole entry): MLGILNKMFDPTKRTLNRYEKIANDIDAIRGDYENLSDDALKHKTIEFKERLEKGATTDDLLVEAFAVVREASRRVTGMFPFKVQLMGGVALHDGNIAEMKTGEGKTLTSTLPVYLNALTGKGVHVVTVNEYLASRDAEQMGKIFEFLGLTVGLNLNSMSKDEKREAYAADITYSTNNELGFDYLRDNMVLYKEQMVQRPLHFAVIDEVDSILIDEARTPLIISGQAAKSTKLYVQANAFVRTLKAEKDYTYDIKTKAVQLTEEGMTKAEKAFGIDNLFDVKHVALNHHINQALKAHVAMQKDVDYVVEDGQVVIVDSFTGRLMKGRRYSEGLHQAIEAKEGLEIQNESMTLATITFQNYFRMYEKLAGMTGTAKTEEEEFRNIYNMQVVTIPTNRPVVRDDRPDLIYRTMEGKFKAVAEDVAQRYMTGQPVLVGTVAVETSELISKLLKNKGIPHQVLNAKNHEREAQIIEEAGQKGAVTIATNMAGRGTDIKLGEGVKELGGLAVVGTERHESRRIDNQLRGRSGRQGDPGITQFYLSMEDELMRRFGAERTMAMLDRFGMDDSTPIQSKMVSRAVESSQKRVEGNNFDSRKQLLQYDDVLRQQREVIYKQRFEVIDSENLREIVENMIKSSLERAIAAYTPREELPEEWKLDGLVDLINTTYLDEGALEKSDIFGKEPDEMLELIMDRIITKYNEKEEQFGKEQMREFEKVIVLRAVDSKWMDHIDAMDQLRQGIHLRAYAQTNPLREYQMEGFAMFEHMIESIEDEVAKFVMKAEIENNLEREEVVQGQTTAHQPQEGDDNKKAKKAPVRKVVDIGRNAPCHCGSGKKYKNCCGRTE
protocol: Ion-channel activity of SecA-liposomes in oocytes, BsSecA
readout: IC50

Query: Requested read-out: IC50. Entry: FC(F)(F)c1cc(-c2nnc(Sc3cc(Cl)nc(Sc4ccccc4)n3)[nH]2)cc(C(F)(F)F)c1 [Compound 12a]
Result: 2.3 µM

###

// each record: one item and its MIC for E. coli NR698

Here's what some known entries look like.
CCc1ccc(-c2nc(Sc3nc(Cl)cc(Cl)n3)[nH]c(=O)c2C#N)cc1 [Compound 20b] :: > 250 µM
CSc1nc(Cl)c2c(n1)Sc1nnc(-c3cc(C(F)(F)F)cc(C(F)(F)F)c3)n1NC2 [Compound 25] :: > 250 µM
N#Cc1c(-c2ccc(Br)cc2)nc(Sc2nc(Cl)cc(Cl)n2)[nH]c1=O [Compound 20a] :: > 250 µM
FC(F)(F)c1cc(-c2nnc(Sc3nc(Cl)cc(Cl)n3)o2)cc(C(F)(F)F)c1 [Compound 17] :: > 250 µM
CSc1nccc(Sc2nnc(-c3cc(C)cc(C)c3)[nH]2)n1 [Compound 7d] :: > 250 µM

Query: Requested read-out: MIC. Entry: COc1cc(OC)cc(-c2nnc(Sc3cc(Cl)nc(Sc4ccccc4)n3)[nH]2)c1 [Compound 12h]
Result: > 250 µM

Query: Requested read-out: MIC. Entry: COc1cc(O)cc(-c2nnc(Sc3cc(Cl)nc(Sc4ccccc4)n3)[nH]2)c1 [Compound 12j]
Result: > 250 µM

Query: Requested read-out: MIC. Entry: CSc1nc(Cl)cc(Sc2nnc(-c3cc(C(F)(F)F)cc(C(F)(F)F)c3)o2)n1 [Compound 15]
Result: > 100 µM

Query: Requested read-out: MIC. Entry: FC(F)(F)c1cc(-c2nnc(Sc3nc(Cl)cc(NCc4ccccc4)n3)[nH]2)cc(C(F)(F)F)c1 [Compound 16e]
Result: ≥ 250 µM
